B1: TRIM14 (parent)
chain: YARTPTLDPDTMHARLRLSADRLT

Variants of: B1
Test: protein stability index of a GFP-peptide fusion (GPS, HEK-293T) (PSI 1-6); higher = more stable;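 note: lentivirally expressed fusions sorted by FACS into six bins by GFP to DsRed ratio, PSI derived from sequencing read proportions per bin multiplied by bin number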
Conditions: c terminus: a fixed tail appended
I would appreciate it if you labelled entries yes (1) when protein stability index is 2 or higher, otherwise no (0).

> print(dat)
   residue.change  category.label
1            T24F          no (0)
2            D21S         yes (1)
3             T6I         yes (1)
4             R3Y          no (0)
5            L23P         yes (1)
6            L23Y         yes (1)

Q: Given T4Y , state whether its protein stability index is at least 2.
Ans: yes (1)

Q: Given L7H , state whether its protein stability index is at least 2.
Ans: yes (1)

Q: Given T11I , state whether its protein stability index is at least 2.
Ans: yes (1)

Q: Given D21I , state whether its protein stability index is at least 2.
Ans: no (0)

This collection of values is drawn from the supplement of paper PMC10567573.
